- ASSAY TEXT: Cytotoxicity against human MT4 cells expressing CD4 and CXCR4
- Type: cell-based
Response field class: string, computed from recorded CC50 by ranges c1: < 30 µM; c2: ≥ 30 µM and < 40 µM; c3: ≥ 40 µM

>  <COMPOUND>
NCc1cscc1N(Cc1nc2ccccc2[nH]1)C1CCCc2cccnc21 (stereo not given)

>  <GROUP>
c2

$$$$

QUERY: Which category fits this record: NCc1ncoc1CN(Cc1nc2ccccc2[nH]1)C1CCCc2cccnc21 (stereo not given)
RESULT: c3

QUERY: Categorize the following entry: NCc1ccoc1CN(Cc1nc2ccccc2[nH]1)C1CCCc2cccnc21 (stereo not given)
RESULT: c1

QUERY: Consider NCc1[nH]cnc1CN(Cc1nc2ccccc2[nH]1)C1CCCc2cccnc21 (stereo not given) . To which CC50 class does it belong?
RESULT: c1

----------
- ASSAY TEXT: Volume of distribution in rat at 10 umol/kg, iv
- Assay type: ADME, organism-based
- CONDITION SET: in vivo
VALUE TYPE: Vd (L/kg)
Kindly provide the numeric value in L/kg only, without the unit symbol.

Field: example entries. Status: answers known.
>  <STRUCTURE>
NCc1cocc1N(Cc1nc2ccccc2[nH]1)[C@H]1CCCc2cccnc21

>  <RESULT UNIT>
L/kg

>  <Vd>
3.6

$$$$
>  <STRUCTURE>
NCc1ncccc1CN(Cc1nc2ccccc2[nH]1)[C@H]1CCCc2cccnc21

>  <RESULT UNIT>
L/kg

>  <Vd>
6.6

$$$$

API: the following record is the query input.
QUERY: Look up and state reported Vd for NCc1cscc1N(Cc1nc2ccccc2[nH]1)[C@H]1CCCc2cccnc21
RESULT: 5.2

----------
- ASSAY TEXT: Oral bioavailability in dog at 12.5 umol/kg
- Assay type: ADME, organism-based, Canis lupus familiaris
- CONDITION SET: in vivo
VALUE TYPE: bioavailability (%)
Give the quantity in %, number only.

Worked cases, answers included:
>  <STRUCTURE>
NCc1ncccc1CN(Cc1nc2ccccc2[nH]1)[C@H]1CCCc2cccnc21

>  <REPORTED RESULT>
84

$$$$
>  <STRUCTURE>
NCc1cscc1N(Cc1nc2ccccc2[nH]1)[C@H]1CCCc2cccnc21

>  <REPORTED RESULT>
9

$$$$

Proceeding to the next compound to report its bioavailability.
QUERY: Using known records, supply bioavailability for NCc1cocc1N(Cc1nc2ccccc2[nH]1)[C@H]1CCCc2cccnc21
RESULT: 28

----------
Measured CC50 of individual entries
- ASSAY TEXT: Cytotoxicity against human MT4 cells expressing CD4 and CXCR4
- Format: cell-based
Enter your answer as a number in µM; do not include the unit.

Sample records with CC50:
>  <COMPOUND>
NCc1cocc1N(Cc1nc2ccccc2[nH]1)C1CCCc2cccnc21 (stereo not given)

>  <CC50 [µM]>
30.2

$$$$
>  <COMPOUND>
CO/N=C/c1ccc(CN(Cc2nc3ccccc3[nH]2)C2CCCc3cccnc32)c(CN)c1 (stereo not given)

>  <CC50 [µM]>
26.8

$$$$
>  <COMPOUND>
NCc1cc(C(N)=O)ccc1CN(Cc1nc2ccccc2[nH]1)C1CCCc2cccnc21 (stereo not given)

>  <CC50 [µM]>
120

$$$$

QUERY: Respond only with CC50 recorded for NCc1cc(F)ccc1CN(Cc1nc2ccccc2[nH]1)C1CCCc2cccnc21 (stereo not given)
RESULT: 45.6

QUERY: Indicate the recorded CC50 value for this compound: NCc1cc(CO)ccc1CN(Cc1nc2ccccc2[nH]1)C1CCCc2cccnc21 (stereo not given)
RESULT: 37.5

QUERY: Identify measured CC50 associated with COCc1ccc(CN(Cc2nc3ccccc3[nH]2)C2CCCc3cccnc32)c(CN)c1 (stereo not given)
RESULT: 201

QUERY: Give CC50 for the following compound: NCc1occc1CN(Cc1nc2ccccc2[nH]1)C1CCCc2cccnc21 (stereo not given)
RESULT: 50

QUERY: Give CC50 for the following compound: NCc1ccncc1CN(Cc1nc2ccccc2[nH]1)C1CCCc2cccnc21 (stereo not given)
RESULT: 128

QUERY: Report CC50 for NCc1sccc1CN(Cc1nc2ccccc2[nH]1)C1CCCc2cccnc21 (stereo not given)
RESULT: 31.5

QUERY: Supply CC50 value. Item: NCc1cc(C(F)(F)F)ccc1CN(Cc1nc2ccccc2[nH]1)C1CCCc2cccnc21 (stereo not given)
RESULT: 26.6

----------
- ASSAY TEXT: Cytotoxicity against human MT4 cells expressing CD4 and CXCR4
- Type: cell-based
Listing: CC50 of selected compounds
Provide the measurement as a number trailed by its unit.

Past entries and their recorded results:
>  <COMPOUND>
NCc1nc(CN(Cc2nc3ccccc3[nH]2)C2CCCc3cccnc32)co1 (centres undefined)

>  <CC50>
28.5 µM

$$$$
>  <COMPOUND>
NCc1ccc(CN(Cc2nc3ccccc3[nH]2)C2CCCc3cccnc32)s1 (centres undefined)

>  <CC50>
28.5 µM

$$$$
>  <COMPOUND>
NCc1ncccc1CN(Cc1nc2ccccc2[nH]1)C1CCCc2cccnc21 (centres undefined)

>  <CC50>
150 µM

$$$$

Please turn your attention to the following entry.
QUERY: Look up and report measured CC50 for this entry: NCc1ccc(CN(Cc2nc3ccccc3[nH]2)C2CCCc3cccnc32)o1 (centres undefined)
RESULT: 28.5 µM

----------
- Test system: Human immunodeficiency virus 1
- ASSAY TEXT: Antiviral activity against X4 tropic HIV1 infected in human PBMC assessed as inhibition of virus-induced cytopathicity
- Type: functional, organism-based
// IC50 lookup, one value per entry
Numbers only; they are read as nM.

Example cases with answers are listed next.
>  <STRUCTURE>
NCc1cocc1N(Cc1nc2ccccc2[nH]1)[C@H]1CCCc2cccnc21

>  <IC50 / nM>
4.1

$$$$
>  <STRUCTURE>
NCc1ncccc1CN(Cc1nc2ccccc2[nH]1)[C@H]1CCCc2cccnc21

>  <IC50 / nM>
9.9

$$$$

QUERY: Please give the documented IC50 of NCc1cscc1N(Cc1nc2ccccc2[nH]1)[C@H]1CCCc2cccnc21
RESULT: 2

----------
- ASSAY TEXT: Cmax in dog at 5 umol/kg, iv
- Assay type: ADME, organism-based, Canis lupus familiaris
- Design: dose 5 umol/kg, route intravenous
- CONDITION SET: in vivo
VALUE TYPE: Cmax (µM)
Supply the numeric figure in µM, leaving out any unit text.

>  <STRUCTURE>
NCc1cscc1N(Cc1nc2ccccc2[nH]1)[C@H]1CCCc2cccnc21

>  <RESULT UNIT>
µM

>  <REPORTED RESULT>
2.6

$$$$

QUERY: Tell us which Cmax value is on record for NCc1cocc1N(Cc1nc2ccccc2[nH]1)[C@H]1CCCc2cccnc21
RESULT: 4.7

QUERY: For the compound NCc1ncccc1CN(Cc1nc2ccccc2[nH]1)[C@H]1CCCc2cccnc21 , report Cmax.
RESULT: 4.2

----------
- ASSAY TEXT: Clearance in rat at 10 umol/kg, iv
- Assay type: ADME, organism-based
- CONDITION SET: in vivo
The compounds listed here are annotated with their clearance.
Your answer is read as mL/min/kg, so omit the unit and give the number.

>  <STRUCTURE>
NCc1cocc1N(Cc1nc2ccccc2[nH]1)[C@H]1CCCc2cccnc21

>  <clearance, mL/min/kg>
23.3

$$$$

QUERY: Provide clearance value for the following compound: NCc1cscc1N(Cc1nc2ccccc2[nH]1)[C@H]1CCCc2cccnc21
RESULT: 27.2

----------
- Test system: Rattus norvegicus
- ASSAY TEXT: Cmax in rat at 10 umol/kg, iv
- Type: ADME, organism-based
- Set-up: dose 10 umol/kg, route intravenous
- CONDITION SET: in vivo
VALUE TYPE: Cmax

QUERY: Provide Cmax value for the following compound: NCc1ncccc1CN(Cc1nc2ccccc2[nH]1)[C@H]1CCCc2cccnc21
RESULT: 1200 nM

----------
The following compounds are listed with their measured Cmax values.
- ASSAY TEXT: Cmax in rat at 10 umol/kg, iv
- Type: ADME, organism-based
- Parameters: dose 10 umol/kg, route intravenous
- CONDITION SET: in vivo, 10 umol/kg
Use nM as the unit, but write only the number.

>  <STRUCTURE>
NCc1cscc1N(Cc1nc2ccccc2[nH]1)[C@H]1CCCc2cccnc21

>  <Cmax [nM]>
1400

$$$$

QUERY: Respond only with Cmax recorded for NCc1cocc1N(Cc1nc2ccccc2[nH]1)[C@H]1CCCc2cccnc21
RESULT: 3000

----------
- Tested on: Human immunodeficiency virus 1
- ASSAY TEXT: Antiviral activity against X4 tropic HIV1 NL4.3 infected in human MT4 cells expressing CD4 and CXCR4 assessed as inhibition of virus-induced cytopathicity
- Type: functional, organism-based
- CONDITION SET: Human immunodeficiency virus 1, NL4.3, MT4
VALUE TYPE: IC50 (nM)
Dear colleague, please return just the value in nM, with no unit written.

These recorded examples may help you get a feel for the data.
>  <COMPOUND>
NCc1cc(C(=O)O)ccc1CN(Cc1nc2ccccc2[nH]1)C1CCCc2cccnc21 (stereo not given)

>  <RESULT UNIT>
nM

>  <IC50>
69

$$$$
>  <COMPOUND>
NCc1ccc(CN(Cc2nc3ccccc3[nH]2)C2CCCc3cccnc32)s1 (stereo not given)

>  <RESULT UNIT>
nM

>  <IC50>
2480

$$$$
>  <COMPOUND>
NCc1ccoc1CN(Cc1nc2ccccc2[nH]1)C1CCCc2cccnc21 (stereo not given)

>  <RESULT UNIT>
nM

>  <IC50>
0.4

$$$$

Read the next record carefully.
QUERY: Would you please give the reported IC50 of NCc1cc(C(N)=O)ccc1CN(Cc1nc2ccccc2[nH]1)C1CCCc2cccnc21 (stereo not given) with Human immunodeficiency virus 1?
RESULT: 12
